Each recorded value in this set is attributed to patent US7884117B2.

# MEASURED_ON: PAK4 Kinase domain (PAK4 KD) (Homo sapiens)
# Construct: Cloning, expression, and purification of recombinant PAK4 Kinase domain (PAK4 KD); His tag (pET28a(+)/pET24a(+), Ni-NTA purification) (N, cleaved yes); GST (pGST4.5, glutathione column) (N, cleaved yes); made in house; host or cells: E. coli BL21(DE3)
# Sequence (O96013 321-572 limits assumed): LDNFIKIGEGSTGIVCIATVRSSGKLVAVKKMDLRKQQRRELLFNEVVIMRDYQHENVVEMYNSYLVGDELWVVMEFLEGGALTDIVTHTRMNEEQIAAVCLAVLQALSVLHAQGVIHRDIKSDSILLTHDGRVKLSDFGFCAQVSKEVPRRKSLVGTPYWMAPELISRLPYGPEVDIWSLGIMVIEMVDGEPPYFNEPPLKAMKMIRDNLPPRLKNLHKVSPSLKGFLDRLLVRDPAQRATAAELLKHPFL
# PROTOCOL_DETAILS: PAK4 kinase domain enzymatic assay (PK/LDH-coupled, Ki)
# Format: biochemical
# ASSAY_SETUP: PAK4 Kinase Domain
pKi: −log10 of the molar value.
MEASURED_ENDPOINT: pKi

Example compounds with recorded pKi:
{"columns": ["COMPOUND", "pKi"],
 "data": [
  ["CN(C)C[C@@H](OC(=O)N1Cc2c(NC(=O)c3ccccc3F)n[nH]c2C1(C)C)C1CCCCC1 [Example 33]", 6.66],
  ["CN(C)C[C@@H](OC(=O)N1Cc2c(NC(=O)C3CN(C)CCO3)n[nH]c2C1(C)C)c1ccccc1 (stereo partly shown) [Example 17]", 6.59]
]}

[1] CC1(C)c2[nH]nc(NC(=O)Cc3ccc(F)cc3)c2CN1C(=O)N[C@@H]1C[C@H]1c1ccccc1 (relative stereo) [Example 70]
[2] CC1(C)c2[nH]nc(NC(=O)[C@@H]3C[C@H]3c3ccccc3)c2CN1C(=O)N[C@@H]1C[C@H]1c1ccccc1 (relative stereo) [Example 108]
Two entries are listed, 1 and 2 . Which one carries the higher pKi? Indicate your choice by writing its label.
2
(2: 7.15, 1: 6.65)

* * *

# MEASURED_ON: PAK4 kinase activity in whole cells (TR-293-KDG, modified HEK 293) (Homo sapiens)
# Construct: engineered to overexpress both GEF-H1b and the kinase domain (KD) of PAK4
# Sequence (O96013 321-572 limits assumed): as above
# PROTOCOL_DETAILS: PAK4 cellular assay: sandwich ELISA of PAK4-dependent phosphorylation of GEF-H1b in TR-293-KDG cells
# ASSAY_SETUP: 3-hour exposure
MEASURED_ENDPOINT: EC50 (nM)

{"columns": ["COMPOUND", "MEASURED_ENDPOINT", "MEASURED_VALUE"],
 "data": [
  ["CN(C)C[C@@H](NC(=O)N1Cc2c(NC(=O)c3cscn3)n[nH]c2C1(C)C)c1ccccc1 [Example 72]", "EC50", 362]
]}

[1] CN(C)C[C@@H](OC(=O)N1Cc2c(NC(=O)[C@@H]3C[C@H]3c3ccccc3)n[nH]c2C1(C)C)c1ccccn1 [Example 29]
[2] CC(C)C[C@@H](CN(C)C)OC(=O)N1Cc2c(NC(=O)c3ccccc3)n[nH]c2C1(C)C [Example 35]
[3] CN(C)C[C@@H](OC(=O)N1Cc2c(NC(=O)C3CC3)n[nH]c2C1(C)C)c1ccccc1 [Example 9]
// sort entries: EC50, high to low Please, when replying, give the labels in the order that was requested.
1, 2, 3

* * *

# MEASURED_ON: PAK4 kinase activity in whole cells (TR-293-KDG, modified HEK 293) (Homo sapiens)
# Construct: engineered to overexpress both GEF-H1b and the kinase domain (KD) of PAK4
# PROTOCOL_DETAILS: PAK4 cellular assay: sandwich ELISA of PAK4-dependent phosphorylation of GEF-H1b in TR-293-KDG cells
# ASSAY_SETUP: 3-hour exposure
pEC50: −log10 of the molar value.
MEASURED_ENDPOINT: pEC50

Example compounds with recorded pEC50:
{"columns": ["COMPOUND", "MEASURED_ENDPOINT", "MEASURED_VALUE"],
 "data": [
  ["CN(C)CC(OC(=O)N1Cc2c(NC(=O)c3ccc(F)cc3)n[nH]c2C1(C)C)c1cccc2cccnc12 (stereo not drawn)", "pEC50", 6.38],
  ["CN(C)C[C@@H](OC(=O)N1Cc2c(NC(=O)c3ccccn3)n[nH]c2C1(C)C)c1ccccc1", "pEC50", 7.55],
  ["COc1ccc(CC(=O)Nc2n[nH]c3c2CN(C(=O)O[C@H](CN(C)C)c2ccccc2)C3(C)C)cc1", "pEC50", 7.17],
  ["CN(C)C[C@@H](NC(=O)N1Cc2c(NC(=O)C3CCC3)n[nH]c2C1(C)C)c1ccccc1", "pEC50", 7.55],
  ["CN(C)C[C@H](Cc1ccccc1)OC(=O)N1Cc2c(NC(=O)c3ccccc3F)n[nH]c2C1(C)C", "pEC50", 6.64],
  ["C[C@@H](CN(C)C)OC(=O)N1Cc2c(NC(=O)c3ccccc3)n[nH]c2C1(C)C", "pEC50", 6.70]
]}

[I] CN(C)C[C@@H](OC(=O)N1Cc2c(NC(=O)c3cn(C)cn3)n[nH]c2C1(C)C)c1ccccc1
[II] CN(C)C[C@@H](NC(=O)N1Cc2c(NC(=O)c3ccccc3)n[nH]c2C1(C)C)c1ccccc1
Input pair: I , II . Output: entry with lower pEC50. Indicate your choice by writing its label.
I
(I: 6.65, II: 7.49)

[A] COc1ccc(CC(=O)Nc2n[nH]c3c2CN(C(=O)N[C@H](CN(C)C)c2ccccc2)C3(C)C)cc1
[B] CN(C)C[C@@H](NC(=O)N1Cc2c(NC(=O)[C@@H]3C[C@H]3c3ccccc3)n[nH]c2C1(C)C)c1ccccc1
[C] CC1(C)c2[nH]nc(NC(=O)c3cc4ccccc4s3)c2CN1C(=O)N[C@H](CO)c1ccccc1
// sort entries: pEC50, high to low Please, when replying, give the labels in the order that was requested.
B, A, C

[I] CN(C)CC(OC(=O)N1Cc2c(n[nH]c2NC(=O)C2CCCO2)C1(C)C)c1cccc(F)c1 (single isomer, unassigned) [Example 83A]
[II] CN(C)C[C@@H](NC(=O)N1Cc2c(NC(=O)c3ccc(C(F)(F)F)cc3)n[nH]c2C1(C)C)c1ccccc1
[III] CO[C@@H](C)C(=O)Nc1n[nH]c2c1CN(C(=O)O[C@H](CN(C)C)c1ccccc1)C2(C)C
// sort entries: pEC50, high to low Please, when replying, give the labels in the order that was requested.
III, II, I
(III: 8.40, II: 6.47, I: 6.25)
